Tested target: P2Y purinoceptor 14 (Homo sapiens)
Sequence (Q15391 whole entry): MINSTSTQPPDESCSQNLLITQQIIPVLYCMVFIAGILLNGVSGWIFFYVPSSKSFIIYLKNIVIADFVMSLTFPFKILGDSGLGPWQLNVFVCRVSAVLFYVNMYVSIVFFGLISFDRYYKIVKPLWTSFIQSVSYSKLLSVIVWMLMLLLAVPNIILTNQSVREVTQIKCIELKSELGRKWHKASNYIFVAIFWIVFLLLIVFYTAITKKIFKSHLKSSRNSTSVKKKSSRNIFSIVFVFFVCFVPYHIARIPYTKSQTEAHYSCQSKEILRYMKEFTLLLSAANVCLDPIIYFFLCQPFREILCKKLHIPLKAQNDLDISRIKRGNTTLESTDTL
Condition description: HEK293, dose 100.0 nM
Description: Antagonist activity at P2Y14R (unknown origin) stably expressed in HEK293 cells assessed as inhibition of forskolin-induced cAMP production at 100 nM by cAMP-Glo assay relative to control
Readout kind: inhibition (%)

These solved cases illustrate the format of a correct answer.
# Query smiles, Reported measurement
records = [
    ("Cc1ccc(C(=O)Nc2cc(C(=O)O)sc2Oc2ccc(C#N)cc2)cc1", 16.2),
    ("Cc1ccc(C(=O)Nc2cc(C(=O)O)sc2Oc2cccc(Cl)c2)cc1", 36.2),
    ("Cc1ccc(Oc2sc(C(=O)O)cc2NC(=O)c2ccc(C)nc2)cn1", 30.3),
]

P = Cc1ccc(Oc2sc(C(=O)O)cc2NC(=O)c2ccc(C#N)cc2)cn1
Q = Cc1ccc(Oc2sc(C(=O)O)cc2NC(=O)c2ccc(C(C)(C)C)cc2)cn1
Task item: Select one. Lower inhibition: P or Q Please identify the chosen entry by its label.
Reply: Q
(Q: 12.2%, P: 33%)

---

Experiment summary: Aqueous solubility of compound in PBS at pH 7.4 by spectrometry
Type: physicochemical
Condition description: buffer
Readout kind: solubility (µg/mL)

# count of solved cases: 2
# Query smiles, Reported measurement
measured = [
    ("COc1ccc(C(=O)Nc2cc(C(=O)O)sc2Oc2ccc(C)nc2)cc1", 2.33),
    ("Cc1ccc(C(=O)Nc2cc(C(=O)O)sc2Oc2ccc(C)cn2)cc1", 1.7),
]

a = Cc1ccc(C(=O)Nc2cc(C(=O)O)sc2Oc2ccc(F)cn2)cc1
b = Cc1ccc(C(=O)Nc2cc(C(=O)O)sc2Oc2ccc(F)nc2)cc1
Task item: Compare solubility: is it lower for a or for b ? Field: selected label. Fill in the label of the entry you choose.
Reply: a
(a: 1.995 µg/mL, b: 3.253 µg/mL)

---

Experiment summary: Cmax in Sprague-Dawley rat at 5 mg/kg, po
Assay type: ADME, organism-based
Condition description: in vivo
Readout kind: Cmax (ng/mL)
Give just the numeric value; ng/mL need not be written.

Task item: For the molecule `Cc1ccc(C(=O)Nc2cc(C(=O)O)sc2Oc2ccc(F)cn2)cc1` , give its measured Cmax value.
Reply: 518

---

Experiment summary: Aqueous solubility of compound in PBS at pH 7.4 by spectrometry
Format: physicochemical
Condition description: buffer
Readout kind: solubility (µg/mL)

# Query smiles, Readout kind, Reported measurement
rows = [
    ("Cc1ccc(C(=O)Nc2cc(C(=O)O)cc(-c3ccoc3)c2)cc1", "solubility", 0.878),
]

A = Cc1ccc(C(=O)Nc2cc(C(=O)O)sc2Oc2ccc(C)nc2)cc1
B = Cc1ccc(C(=O)Nc2cc(C(=O)O)nn2Cc2ccc(F)cc2)cc1
Task item: Smaller solubility value? Options are A and B // caller expects the label of the chosen entry
Reply: B

---

Tested target: UniProt:Q15391
Experiment summary: Antagonist activity at P2Y14R (unknown origin) stably expressed in HEK293 cells assessed as inhibition of forskolin-induced cAMP production by cAMP-Glo assay
Assay type: functional, cell-based
Readout kind: IC50 (nM)

# Query smiles, Reported measurement
data = [
    ("Cc1ccc(C(=O)Nc2cc(C(=O)O)sc2Oc2ccc(F)nc2)cc1", 17.6),
    ("Cc1ccc(Oc2sc(C(=O)O)cc2NC(=O)c2ccc(C)cc2)cc1", 4.01),
    ("Cc1ccc(C(=O)Nc2cc(C(=O)O)sc2Oc2ccc(F)cc2)cc1", 60.6),
    ("COc1ccc(Oc2sc(C(=O)O)cc2NC(=O)c2ccc(C)cc2)cc1", 24500),
]

A = CCc1ccc(Oc2sc(C(=O)O)cc2NC(=O)c2ccc(C)cc2)cc1
B = C#Cc1ccc(C(=O)Nc2cc(C(=O)O)sc2Oc2ccc(C)nc2)cc1
Task item: API: POST /compare with A and B ; response names the item with higher IC50. Write down the label attached to your selection.
Reply: A
